# experiment_summary: Cytotoxicity against human HPLF cells
# Format: cell-based
readout_name: log10(CC50) (log10 of the value in µM)

INSERT INTO assay_data (smiles_input, recorded_number) VALUES
  ('CCOP(=O)(OCC)N1C/C(=C\c2ccc([N+](=O)[O-])cc2)C(=O)/C(=C/c2ccc([N+](=O)[O-])cc2)C1', 0.34),
  ('O=C1/C(=C/c2ccccc2[N+](=O)[O-])CN(P(=O)(O)O)C/C1=C\c1ccccc1[N+](=O)[O-]', 0.48),
  ('CCOP(=O)(OCC)N1C/C(=C\c2ccc(Cl)cc2)C(=O)/C(=C/c2ccc(Cl)cc2)C1', 0.68),
  ('COc1ccc(/C=C2\CN(P(=O)(O)O)C/C(=C\c3ccc(OC)cc3)C2=O)cc1', 1.64),
  ('COc1cc(/C=C2\CN(P(=O)(O)O)C/C(=C\c3cc(OC)c(OC)c(OC)c3)C2=O)cc(OC)c1OC', 0.00),
  ('O=C1/C(=C/c2ccc(Cl)cc2)CN(P(=O)(O)O)C/C1=C\c1ccc(Cl)cc1', 0.71),
  ('CCOP(=O)(OCC)N1C/C(=C\c2ccccc2[N+](=O)[O-])C(=O)/C(=C/c2ccccc2[N+](=O)[O-])C1', 1.18),
  ('O=C1/C(=C/c2ccccc2)CN(P(=O)(O)O)C/C1=C\c1ccccc1', 0.85),
  ('O=C1/C(=C/c2cccc([N+](=O)[O-])c2)CN(P(=O)(O)O)C/C1=C\c1cccc([N+](=O)[O-])c1', 0.52),
  ('CCOP(=O)(OCC)N1C/C(=C\c2ccc(C)cc2)C(=O)/C(=C/c2ccc(C)cc2)C1', 1.32),
  ('O=C1/C(=C/c2ccc([N+](=O)[O-])cc2)CN(P(=O)(O)O)C/C1=C\c1ccc([N+](=O)[O-])cc1', 0.53),
  ('COc1ccc(/C=C2\CN(P(=O)(O)O)C/C(=C\c3ccc(OC)c(OC)c3)C2=O)cc1OC', 0.40),
  ('CCOP(=O)(OCC)N1C/C(=C\c2cc(OC)c(OC)c(OC)c2)C(=O)/C(=C/c2cc(OC)c(OC)c(OC)c2)C1', 0.34),
  ('N[C@@H](Cc1ccc(N(CCCl)CCCl)cc1)C(=O)O', 2.30),
  ('CCOP(=O)(OCC)N1C/C(=C\c2ccccc2)C(=O)/C(=C/c2ccccc2)C1', 1.00);

----------
# Test system: HSC-2
# experiment_summary: Cytotoxicity against human HSC2 cells
# Assay type: functional
Reported CC50 values are given for each entry in this list.
readout_name: CC50 (µM)

INSERT INTO measurements (smiles_input, readout_name, recorded_number) VALUES
  ('O=C1/C(=C/c2ccc(Cl)cc2)CN(P(=O)(O)O)C/C1=C\c1ccc(Cl)cc1', 'CC50', 0.42),
  ('CCOP(=O)(OCC)N1C/C(=C\c2ccc(Cl)cc2)C(=O)/C(=C/c2ccc(Cl)cc2)C1', 'CC50', 1.5),
  ('O=C1/C(=C/c2ccc([N+](=O)[O-])cc2)CN(P(=O)(O)O)C/C1=C\c1ccc([N+](=O)[O-])cc1', 'CC50', 0.18),
  ('CCOP(=O)(OCC)N1C/C(=C\c2ccc(OC)cc2)C(=O)/C(=C/c2ccc(OC)cc2)C1', 'CC50', 0.92),
  ('CCOP(=O)(OCC)N1C/C(=C\c2ccccc2[N+](=O)[O-])C(=O)/C(=C/c2ccccc2[N+](=O)[O-])C1', 'CC50', 1.6),
  ('N[C@@H](Cc1ccc(N(CCCl)CCCl)cc1)C(=O)O', 'CC50', 8.7),
  ('CCOP(=O)(OCC)N1C/C(=C\c2ccc([N+](=O)[O-])cc2)C(=O)/C(=C/c2ccc([N+](=O)[O-])cc2)C1', 'CC50', 0.33),
  ('CCOP(=O)(OCC)N1C/C(=C\c2ccc(OC)c(OC)c2)C(=O)/C(=C/c2ccc(OC)c(OC)c2)C1', 'CC50', 1.7),
  ('CCOP(=O)(OCC)N1C/C(=C\c2ccc(C)cc2)C(=O)/C(=C/c2ccc(C)cc2)C1', 'CC50', 4.9),
  ('O=C1/C(=C/c2cccc([N+](=O)[O-])c2)CN(P(=O)(O)O)C/C1=C\c1cccc([N+](=O)[O-])c1', 'CC50', 0.2),
  ('O=C1/C(=C/c2ccccc2[N+](=O)[O-])CN(P(=O)(O)O)C/C1=C\c1ccccc1[N+](=O)[O-]', 'CC50', 0.17),
  ('CCOP(=O)(OCC)N1C/C(=C\c2cccc([N+](=O)[O-])c2)C(=O)/C(=C/c2cccc([N+](=O)[O-])c2)C1', 'CC50', 0.76),
  ('COc1ccc(/C=C2\CN(P(=O)(O)O)C/C(=C\c3ccc(OC)c(OC)c3)C2=O)cc1OC', 'CC50', 0.4),
  ('Cc1ccc(/C=C2\CN(P(=O)(O)O)C/C(=C\c3ccc(C)cc3)C2=O)cc1', 'CC50', 0.76),
  ('CCOP(=O)(OCC)N1C/C(=C\c2cc(OC)c(OC)c(OC)c2)C(=O)/C(=C/c2cc(OC)c(OC)c(OC)c2)C1', 'CC50', 0.33),
  ('O=C1/C(=C/c2ccccc2)CN(P(=O)(O)O)C/C1=C\c1ccccc1', 'CC50', 0.77),
  ('CCOP(=O)(OCC)N1C/C(=C\c2ccccc2)C(=O)/C(=C/c2ccccc2)C1', 'CC50', 2.4),
  ('COc1ccc(/C=C2\CN(P(=O)(O)O)C/C(=C\c3ccc(OC)cc3)C2=O)cc1', 'CC50', 1.7),
  ('COc1cc(/C=C2\CN(P(=O)(O)O)C/C(=C\c3cc(OC)c(OC)c(OC)c3)C2=O)cc(OC)c1OC', 'CC50', 0.13);
